target: Genome polyprotein (Dengue virus type 2 (strain 16681-PDK53)) (UniProt P29991); test: flavivirus cap methylation enzyme inhibition – biochemical, confirmation dose response, primary screen (AID 588689); conditions: Dengue-2 NS5 methyltransferase capping enzyme assay, at 25 µM, hits give high values
The whole screen tested about 340,000 compounds, of which about 1,000 (0.29%) were called active. A selection follows. Potency and affinity values are given separately.
Measured inhibition by item
valueKind: inhibition

compound	result
C=CCNC(=S)N/N=C/c1ccccc1OCCOc1ccccc1	2.29% (inactive)
Cc1ccc(C(C)C)c(OCC(=O)NCC(c2cccs2)N2CCOCC2)c1 (stereo unspecified)	0.74% (inactive)
Cc1c(Cl)cccc1NC(=O)CC1Sc2ccccc2NC1=O (stereo unspecified)	-2.59% (inactive)
Cc1c(NC(=S)NC(=O)c2ccc(-c3ccc(Cl)cc3)o2)cccc1C(=O)O	8.19% (inactive)
O=C(COC(=O)CCC(=O)c1cccs1)NCCc1ccccc1	10.1% (inactive)
O=Nc1c(-c2ccccc2)n(O)[n+]([O-])c1-c1ccccc1	-16.7% (inactive)
COc1cccc(N2CCN(C(=O)c3c(C)nn(-c4ccccc4)c3C)CC2)c1	-1.48% (inactive)
CC(=O)CC(=O)NC1CCc2ccccc21 (stereo unspecified)	-2.7% (inactive)
COc1ccc(NC2=NCCC(=O)N2Cc2cccs2)cc1	3.14% (inactive)
O=C(c1ccc(Cl)c(Cl)c1)N1CCN(c2ccccn2)CC1	-2.38% (inactive)
O=C(O)c1ccc(NC(=S)NC(=O)c2ccc(-c3ccc(Br)cc3)o2)cc1	-8.03% (inactive)
